- METHOD_DESCRIPTION: physchem
- STUDY_CONDITIONS: organic solvent or mixture, thermodynamic from solid, Approximate solubility, ACN, RT
OBSERVED_PROPERTY: solubility

C[C@@H]1CN(Cc2cccc(OC(F)(F)F)c2)CCN1C(=O)Oc1cncc(C(N)=O)c1 [Form A]: > 24 mg/mL

###

- METHOD_DESCRIPTION: Visual solubility assessment of Form B at room temperature
- Format: physicochemical
- STUDY_CONDITIONS: organic solvent or mixture, thermodynamic from solid; Isopropyl Acetate, room temperature
OBSERVED_PROPERTY: solubility at 3 min

C[C@@H]1CN(Cc2cccc(OC(F)(F)F)c2)CCN1C(=O)Oc1cncc(C(N)=O)c1 [Form B]: < 810 mg/mL

###

- METHOD_DESCRIPTION: physchem
- STUDY_CONDITIONS: organic solvent or mixture, thermodynamic from solid, Approximate solubility, 2-MeTHF, RT
OBSERVED_PROPERTY: solubility

C[C@@H]1CN(Cc2cccc(OC(F)(F)F)c2)CCN1C(=O)Oc1cncc(C(N)=O)c1 [Form A]: > 23 mg/mL

###

- METHOD_DESCRIPTION: Solubility of Form A in physiologically relevant media (37° C.)
- Type: physicochemical
- STUDY_CONDITIONS: simulated gastric fluid, thermodynamic from solid, pH 1 (0.1N HCl), final measured pH 1.48
OBSERVED_PROPERTY: solubility

C[C@@H]1CN(Cc2cccc(OC(F)(F)F)c2)CCN1C(=O)Oc1cncc(C(N)=O)c1 [Form A]: > 20 mg/mL

###

- METHOD_DESCRIPTION: Form A solubility study in FaSSIF-v2 and FeSSIF-v2 at 37° C.
- Type: physicochemical
- STUDY_CONDITIONS: FaSSIF-v2, thermodynamic from solid; FaSSIF (pH 6.5), 37° C., 2 hr, final pH 6.5
OBSERVED_PROPERTY: solubility at 2 h (µg/mL)

C[C@@H]1CN(Cc2cccc(OC(F)(F)F)c2)CCN1C(=O)Oc1cncc(C(N)=O)c1 [Form A]: 63

###

- METHOD_DESCRIPTION: physchem
- STUDY_CONDITIONS: organic solvent or mixture, thermodynamic from solid, Approximate solubility, IPA, RT
OBSERVED_PROPERTY: solubility

C[C@@H]1CN(Cc2cccc(OC(F)(F)F)c2)CCN1C(=O)Oc1cncc(C(N)=O)c1 [Form A]: > 24 mg/mL

###

- METHOD_DESCRIPTION: physchem
- STUDY_CONDITIONS: water, thermodynamic from solid, Approximate solubility, H2O, RT
OBSERVED_PROPERTY: solubility

C[C@@H]1CN(Cc2cccc(OC(F)(F)F)c2)CCN1C(=O)Oc1cncc(C(N)=O)c1 [Form A]: > 1000 µg/mL

###

- METHOD_DESCRIPTION: Solubility of Form A in physiologically relevant media (37° C.)
- Format: physicochemical
- STUDY_CONDITIONS: acetate buffer pH 5, aqueous buffer, thermodynamic from solid, pH 5 Acetate buffer, final measured pH 5.14
OBSERVED_PROPERTY: solubility (µg/mL)

C[C@@H]1CN(Cc2cccc(OC(F)(F)F)c2)CCN1C(=O)Oc1cncc(C(N)=O)c1 [Form A]: 91

###

- METHOD_DESCRIPTION: Solubility of Form A in physiologically relevant media (37° C.)
- Assay type: physicochemical
- STUDY_CONDITIONS: pH 8.1, thermodynamic from solid, Water, final measured pH 8.10
OBSERVED_PROPERTY: solubility (µg/mL)

C[C@@H]1CN(Cc2cccc(OC(F)(F)F)c2)CCN1C(=O)Oc1cncc(C(N)=O)c1 [Form A]: 12

Just for reference, patent US12410133B2 is where these values come from.
